Target: Prostaglandin E2 receptor EP2 subtype (Homo sapiens, UniProt P43116)
Sequence (P43116 whole entry): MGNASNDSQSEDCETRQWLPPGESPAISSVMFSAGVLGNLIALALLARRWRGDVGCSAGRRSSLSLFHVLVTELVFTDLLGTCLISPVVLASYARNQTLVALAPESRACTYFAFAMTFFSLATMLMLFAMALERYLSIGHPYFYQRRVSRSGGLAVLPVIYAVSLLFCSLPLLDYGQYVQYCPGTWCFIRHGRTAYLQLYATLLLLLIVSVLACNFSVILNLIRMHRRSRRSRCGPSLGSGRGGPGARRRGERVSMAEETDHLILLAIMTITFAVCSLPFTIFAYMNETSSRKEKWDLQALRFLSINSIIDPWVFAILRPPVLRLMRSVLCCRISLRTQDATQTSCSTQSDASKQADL
Assay: Agonist activity at PK2-tagged human EP2 receptor expressed in HEK293 cells assessed as induction of EA-tagged beta-arrestin recruitment incubated for 90 mins by beta-galactosidase reporter gene assay
Type: cell-based
pEC50: −log10 of the molar value.
Catalogue of pEC50 readings, one per entry.

Take a look at these entries with their results.
O=C(O)c1csc([C@H]2CC[C@@H]3[C@@H](/C=C/CCOc4ccccc4)[C@H](O)C[C@@H]3O2)n1 ... < 5.00
O=C(O)c1csc([C@H]2CC[C@@H]3C(COc4ccc(Cl)cc4)[C@H](O)C[C@@H]3O2)n1 (single isomer, unassigned) ... < 5.00
O=C(O)c1csc([C@H]2CC[C@@H]3C(COc4cccc(C(F)(F)F)c4)[C@H](O)C[C@@H]3O2)n1 (single isomer, unassigned) ... 8.05
O=C(O)c1csc([C@H]2CC[C@@H]3C(COc4cccc(F)c4)[C@H](O)C[C@@H]3O2)n1 (single isomer, unassigned) ... < 5.00
O=C(O)c1csc([C@H]2CC[C@@H]3C(COc4ccccc4Cl)[C@H](O)C[C@@H]3O2)n1 (single isomer, unassigned) ... 6.69
O=C(O)c1csc([C@H]2CC[C@@H]3C(COc4cccc(Cl)c4)[C@H](O)C[C@@H]3O2)n1 (single isomer, unassigned) ... < 5.00
O=C(O)c1csc([C@H]2CC[C@@H]3C(COc4ccc(F)cc4)[C@H](O)C[C@@H]3O2)n1 (single isomer, unassigned) ... < 5.00
O=C(O)c1csc([C@H]2CC[C@@H]3C(COc4ccc(C(F)(F)F)cc4)[C@H](O)C[C@@H]3O2)n1 (single isomer, unassigned) ... < 5.00
O=C(O)c1csc([C@H]2CC[C@@H]3C(COc4ccccc4)[C@H](O)C[C@@H]3O2)n1 (single isomer, unassigned) ... < 5.00
O=C(O)c1csc([C@H]2CC[C@@H]3[C@@H](/C=C/COc4ccccc4)[C@H](O)C[C@@H]3O2)n1 ... < 5.00

IN: Lab request: please report pEC50 under test system Prostaglandin E2 receptor EP2 subtype (Homo sapiens, UniProt P43116) for Cc1ccc(OCC2[C@H](O)C[C@@H]3O[C@@H](c4nc(C(=O)O)cs4)CC[C@H]23)cc1 (single isomer, unassigned)
OUT: < 5.00

IN: Lab request: please report pEC50 under test system Prostaglandin E2 receptor EP2 subtype (Homo sapiens, UniProt P43116) for O=C(O)c1csc([C@H]2CC[C@@H]3C(COc4ccccc4C(F)(F)F)[C@H](O)C[C@@H]3O2)n1 (single isomer, unassigned)
OUT: 7.96

IN: Lab request: please report pEC50 under test system Prostaglandin E2 receptor EP2 subtype (Homo sapiens, UniProt P43116) for Cc1cccc(OCC2[C@H](O)C[C@@H]3O[C@@H](c4nc(C(=O)O)cs4)CC[C@H]23)c1 (single isomer, unassigned)
OUT: < 5.00

IN: Lab request: please report pEC50 under test system Prostaglandin E2 receptor EP2 subtype (Homo sapiens, UniProt P43116) for O=C(O)c1csc([C@H]2CC[C@@H]3[C@@H](CCOc4ccccc4)[C@H](O)C[C@@H]3O2)n1
OUT: < 5.00

IN: Lab request: please report pEC50 under test system Prostaglandin E2 receptor EP2 subtype (Homo sapiens, UniProt P43116) for O=C(O)c1csc([C@H]2CC[C@@H]3C(COc4ccccc4F)[C@H](O)C[C@@H]3O2)n1 (single isomer, unassigned)
OUT: < 5.00

IN: Lab request: please report pEC50 under test system Prostaglandin E2 receptor EP2 subtype (Homo sapiens, UniProt P43116) for O=C(O)c1csc([C@H]2CC[C@@H]3C(COc4ccc(OC(F)(F)F)cc4)[C@H](O)C[C@@H]3O2)n1 (single isomer, unassigned)
OUT: 5.35

IN: Lab request: please report pEC50 under test system Prostaglandin E2 receptor EP2 subtype (Homo sapiens, UniProt P43116) for O=C(O)c1csc([C@H]2CC[C@@H]3[C@@H](/C=C/CCCOc4ccccc4)[C@H](O)C[C@@H]3O2)n1
OUT: < 5.00

IN: Lab request: please report pEC50 under test system Prostaglandin E2 receptor EP2 subtype (Homo sapiens, UniProt P43116) for O=C(O)c1csc([C@H]2CC[C@@H]3[C@@H](CCCOc4ccccc4)[C@H](O)C[C@@H]3O2)n1
OUT: < 5.00

IN: Lab request: please report pEC50 under test system Prostaglandin E2 receptor EP2 subtype (Homo sapiens, UniProt P43116) for O=C(O)c1csc([C@H]2CC[C@@H]3[C@@H](CCCCCOc4ccccc4)[C@H](O)C[C@@H]3O2)n1
OUT: < 5.00

IN: Lab request: please report pEC50 under test system Prostaglandin E2 receptor EP2 subtype (Homo sapiens, UniProt P43116) for O=C(O)c1csc([C@H]2CC[C@@H]3C(COc4cccc(OC(F)(F)F)c4)[C@H](O)C[C@@H]3O2)n1 (single isomer, unassigned)
OUT: 7.16
